# system: T1, human plasma IgG1 (human, UniProt P01857-1 1-330 = IgG part)
# T1 construct: Plasma-derived IgG isoform, bought
# T1 sequence (P01857 other isoform, or with tags, fused parts or gaps): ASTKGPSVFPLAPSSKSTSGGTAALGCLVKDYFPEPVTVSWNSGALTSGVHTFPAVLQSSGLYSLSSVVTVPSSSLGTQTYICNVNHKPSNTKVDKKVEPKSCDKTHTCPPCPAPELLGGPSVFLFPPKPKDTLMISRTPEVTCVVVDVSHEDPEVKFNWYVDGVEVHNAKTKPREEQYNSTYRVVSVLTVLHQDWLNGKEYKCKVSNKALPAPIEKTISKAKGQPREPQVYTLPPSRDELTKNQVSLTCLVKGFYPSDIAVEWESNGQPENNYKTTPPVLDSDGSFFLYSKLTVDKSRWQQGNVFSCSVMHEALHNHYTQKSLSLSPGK
# assay_protocol: Oregon Green peptide, pH 4.0 + salt (500 mM NaCl)
pKd: −log10 of the molar value.
metric_name: pKd

>>> recorded_measurement("AGTYWCTFWELPCDPAPGPEGGGK (N-terminal acetyl (Ac-); C-terminal amide (-NH2); Oregon Green labeled, Synthesised by BACHEM, Oregon Green labeled, HPLC purified) [DX404]")
5.70
